Test system: SBK1
cond: concentration: 1 μM, replicates: in singlicate; n = 1;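 note: KINOMEscan kinase panel screen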
readout_kind: %Inh (%)

compound	quantitative_result
Fc1cc(Cl)ccc1Nc1ccnc2cc(-c3ccc(CN4CCSCC4)o3)ccc12 [GW560106]	0
Cn1cc(-c2cnc(N)c3c(-c4ccc5c(c4)CCN5C(=O)Cc4ccccc4)csc23)cn1 [GSK2593074]	0
O=C(Nc1n[nH]c2nc(-c3ccccc3O)ccc12)C1CC1 [SB-711880]	0
COc1ccc(NC(=O)c2ccoc2)cc1-c1ccc(C(=O)NCC2CC2)cc1 [GW810437]	48
CN(c1ccc(NC(=O)N2CCN(CCCN3CCOCC3)CC2)cc1)c1ccnc(Nc2ccc(CS(C)(=O)=O)cc2)n1.Cl [GW830899]	0
Cl.N#CCc1ccc(Nc2nccc(Nc3ccc(Oc4ccccc4)cc3)n2)cc1 [GW639905]	13
Cc1ccc(O)cc1Nc1ccnc2ccc(C(C)(C)C)cc12 [GW856805]	53
CSc1ccc(NC2=C(c3ccc(Cl)cc3)C(=O)NC2=O)cc1 [SB-317658]	29
O=C(Nc1n[nH]c2cc(-c3cccs3)ccc12)C1CC1 [SB-731284]	13
Cc1cccc(Nc2nc(NCCN)ncc2C(N)=O)c1 [GSK1292139]	72
CN(c1ccc(NC(=O)Nc2cccc(Cl)c2)cc1)c1ccnc(N)n1.Cl [GW830707]	3
Cn1cc(-c2ccc3c(c2)CCN3C(=O)Cc2cc(F)cc(F)c2F)c2c(N)ncnc21 [GSK2634140]	16
Cc1ccc(NC(=O)c2cccc(N3CCCCC3)c2)cc1-c1ccc(C(=O)NCC2CC2)cc1 [GSK1917008]	10

* * *

Parameter: %Inh. Scope: all listed entries.
Tested on: MAP3K3
cond: concentration: 1 μM, replicates: in singlicate; n = 1

compound	%Inh
Cc1ccc(C)c(NC(=O)Nc2ccc(C)c(-c3ccc(C(=O)Nc4ccncc4)cc3)c2)c1	0%
O=C(Nc1n[nH]c2nc(-c3ccccc3O)ccc12)C1CC1	4%
Cc1ccc(O)cc1Nc1ccnc2cc(-c3ccc(CN4CCCCC4)o3)ccc12	7%
O=C(O)C(F)(F)F.O=c1[nH]ccc2nc(N[C@@H]3CCNC3)nc(Nc3cc(Cl)cc(Cl)c3)c12	78%
COC(=O)Nc1nc2ccc(Oc3ccc(CC(=O)Nc4cc(C(F)(F)F)ccc4F)cc3)cc2[nH]1	0%
Cl.Cl.NC(CNC(=O)c1cc(Br)c(-c2ccnc3[nH]ccc23)s1)c1ccccc1 (stereo not shown)	15%
Cc1nn2c(=O)cc(N3CCO[C@H](C)C3)nc2n1Cc1cccc(Cl)c1Cl	0%

* * *

Parameter: %Inh. Scope: all listed entries.
System: PKAC-alpha
Construct: gene PRKACA
cond: concentration: 1 μM, replicates: in singlicate; n = 1
readout_kind: %Inh (%)

smiles	quantitative_result
Cc1ccc(O)cc1Nc1ccnc2cc(-c3ccc(CN4CCCCC4)o3)ccc12	5
COc1cc(Nc2ccnc3cc(-c4ccncc4)ccc23)cc(OC)c1OC.Cl	0
COC(=O)Nc1nc2ccc(Oc3ccc(CC(=O)Nc4cc(C(F)(F)F)ccc4F)cc3)cc2[nH]1	0
Nc1ncc(-c2cn[nH]c2)c2scc(-c3ccc4c(c3)CCN4C(=O)Cc3ccccc3)c12	20
CN1CCN(Cc2ccc(NC(=O)Nc3ccc(N(C)c4ccnc(Nc5ccc(CS(C)(=O)=O)cc5)n4)cc3)cc2)CC1.Cl	0
COc1cccc(C2=C(Nc3cccc(O)c3)C(=O)NC2=O)c1	0
Fc1cc(Cl)ccc1Nc1ccnc2cc(-c3ccc(CN4CCSCC4)o3)ccc12	27
CC(C)c1nc(-c2cccc(NS(=O)(=O)c3c(F)cccc3F)c2)c(-c2ccnc(Nc3ccc(N4CCOCC4)nc3)n2)s1.Cl	0
Cc1ccccc1CC(=O)N1CCc2cc(-c3cn(C)c4ncnc(N)c34)ccc21	0
Cc1cccc(Nc2nc(N[C@H]3CCCC[C@H]3N)ncc2C(N)=O)c1.Cl	19
Cc1nn2c(=O)cc(N3CCO[C@H](C)C3)nc2n1Cc1cccc(Cl)c1Cl	23

Each recorded value in this set is attributed to paper PMC5540273.
